The measured values listed here are drawn from patent US20240190880A1.

Items are presented alongside their recorded DC50.
target: ER (Homo sapiens, UniProt P03372); construct: host or cells: T47D and MCF7 human breast cancer cells; test: ER degradation activity, in-cell western blot analysis in T47D cells; type: cell-based; conditions: compounds 16 hours, Table A does not say whether T47D or MCF7, read-out: Potency (DC50)
Sequence (P03372 whole entry): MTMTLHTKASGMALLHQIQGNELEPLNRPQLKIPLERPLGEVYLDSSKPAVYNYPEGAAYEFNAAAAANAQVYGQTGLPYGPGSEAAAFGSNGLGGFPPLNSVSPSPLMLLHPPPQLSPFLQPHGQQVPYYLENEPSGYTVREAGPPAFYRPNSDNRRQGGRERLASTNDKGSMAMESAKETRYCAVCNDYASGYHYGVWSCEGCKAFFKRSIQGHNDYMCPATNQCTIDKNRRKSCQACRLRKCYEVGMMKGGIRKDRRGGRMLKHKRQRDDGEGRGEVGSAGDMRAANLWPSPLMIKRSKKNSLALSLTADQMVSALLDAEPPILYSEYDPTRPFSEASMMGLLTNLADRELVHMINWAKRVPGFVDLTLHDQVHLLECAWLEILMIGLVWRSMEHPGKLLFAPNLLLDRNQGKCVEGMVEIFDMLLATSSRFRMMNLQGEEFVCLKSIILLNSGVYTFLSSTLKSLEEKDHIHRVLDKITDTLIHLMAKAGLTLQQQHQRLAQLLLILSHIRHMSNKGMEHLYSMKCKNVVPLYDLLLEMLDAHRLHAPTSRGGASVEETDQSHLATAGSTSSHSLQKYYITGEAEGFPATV

As a guide, the following entries are already answered.
>>> result("C[C@@H]1Cc2c([nH]c3ccccc23)[C@@H](c2ncc(C3=CCC(C(=O)N4CCC(N5Cc6cc7c(cc6C5)C(=O)N(C5CCC(=O)NC5=O)C7=O)CC4)CC3)cc2F)N1CC(C)(C)F (stereo partly drawn)")
"> 100 nM"
>>> result("C[C@@H]1Cc2c([nH]c3ccccc23)[C@@H](c2ccc(C3=CCC(C(=O)N4CCC(N5Cc6cc7c(cc6C5)C(=O)N(C5CCC(=O)NC5=O)C7=O)CC4)CC3)cc2F)N1CC1(F)CC1 (stereo partly drawn)")
"> 100 nM"

# evaluate next
Input line: Give the measured DC50 of C[C@@H]1Cc2c([nH]c3ccccc23)[C@@H](c2cnc(N3CC4(CCC(CN5Cc6cc7c(cc6C5)C(=O)N(C5CCC(=O)NC5=O)C7=O)CC4)C3)nc2)N1CC(C)(C)F (stereo partly drawn) .
Output line: 10 to 100 nM

###

target: ER (Homo sapiens); construct: host or cells: T47D and MCF7 human breast cancer cells; experiment: ER degradation activity, in-cell western blot analysis in T47D cells; format: cell-based; details: compounds 16 hours, Table A does not say whether T47D or MCF7, read-out: Potency (DC50)
measured attribute: DC50

Reference set (8 entries):
>>> result("C[C@@H]1Cc2cc(O)ccc2[C@H](c2c(F)cc(OC3CC4(CCN(C(=O)CN5Cc6cc7c(cc6C5)C(=O)N(C5CCC(=O)NC5=O)C7=O)CC4)C3)cc2F)N1CC(F)F (stereo partly shown)")
"> 100 nM"
>>> result("C[C@@H]1Cc2c([nH]c3ccccc23)[C@@H](c2c(F)cc(C3=CCC(C(=O)N4CCC(N5Cc6cc7c(cc6C5)C(=O)N(C5CCC(=O)NC5=O)C7=O)CC4)CC3)cc2F)N1CC1(F)CC1 (stereo partly shown)")
"> 100 nM"
>>> result("COc1c2c(cc3c1CN(C1CCC(=O)NC1=O)C3=O)CN(CC(=O)N1CCC3(CC1)CCN(c1cc(F)c([C@@H]4c5ccc(O)cc5C[C@@H](C)N4CC(F)F)c(F)c1)CC3)C2 (stereo partly shown)")
"< 10 nM"
>>> result("O=C1CCC(N2Cc3cc4c(cc3C2=O)CN(CC2CN(CC3CCN(c5ccc([C@@H]6c7ccc(O)cc7CC[C@@H]6c6ccccc6)cc5)CC3)C2)C4=O)C(=O)N1 (stereo partly shown)")
"> 100 nM"
>>> result("O=C1CCC(N2C(=O)c3cc4c(cc3C2=O)CC2(C4)CN(CC3CCN(c4ccc([C@@H]5c6ccc(O)cc6CC[C@@H]5c5ccccc5)cc4)CC3)C2)C(=O)N1 (stereo partly shown)")
"> 100 nM"
>>> result("COc1cc([C@H]2CC[C@@H](C(=O)N3CCC(N4Cc5cc6c(cc5C4)C(=O)N(C4CCC(=O)NC4=O)C6=O)CC3)CC2)ncc1[C@@H]1c2[nH]c3ccccc3c2C[C@@H](C)N1CC(F)F (stereo partly shown)")
"> 100 nM"
>>> result("C[C@@H]1Cc2c([nH]c3ccccc23)[C@@H](c2cnc(N3CC4(CCC(CN5Cc6cc7c(cc6C5)C(=O)N(C5CCC(=O)NC5=O)C7=O)CC4)C3)nc2)N1CC(F)F (stereo partly shown)")
"10 to 100 nM"
>>> result("O=C1CCC(N2C(=O)c3cc4c(cc3C2=O)CN(CC(=O)N2CCC3(CC2)CCN(c2ccc([C@H]5c6ccc7[nH]ncc7c6CC[C@H]5c5ccccc5)cc2)CC3)C4)C(=O)N1 (stereo partly shown)")
"> 100 nM"

Input line: I am curious: what DC50 value has been reported for COc1cc(C2CCC(C(=O)N3CCC(N4Cc5cc6c(cc5C4)C(=O)N(C4CCC(=O)NC4=O)C6=O)CC3)CC2)cnc1[C@@H]1c2[nH]c3ccccc3c2C[C@@H](C)N1CC(F)F (stereo partly shown) ?
Output line: > 100 nM

Input line: Repeat for the following compound: C[C@@H]1Cc2cc(O)ccc2[C@@H](c2c(F)cc(NC3CC4(CCN(C(=O)CN5Cc6cc7c(cc6C5)C(=O)N(C5CCC(=O)NC5=O)C7=O)CC4)C3)cc2F)N1CC(F)F (stereo partly shown)
Output line: 10 to 100 nM
